Value source: patent US20190071490A1

The following binders are shown together with reported percentage of binding blocked values.
TARGET OR SYSTEM: antibody G1 Fab fragment
Sequence (VH, as listed by the source, chain 1 of 2): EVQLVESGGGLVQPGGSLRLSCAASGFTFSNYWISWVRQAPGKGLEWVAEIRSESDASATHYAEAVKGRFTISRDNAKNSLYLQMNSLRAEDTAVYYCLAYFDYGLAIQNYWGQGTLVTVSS
Sequence (VL, as listed by the source, chain 2 of 2): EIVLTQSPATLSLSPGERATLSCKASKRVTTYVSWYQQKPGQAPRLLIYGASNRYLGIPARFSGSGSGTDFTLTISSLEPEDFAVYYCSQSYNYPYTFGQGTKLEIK
EXPERIMENT SUMMARY: Biacore competition: 50 nM G1 Fab with 10 µM peptide over human α-CGRP on chip
Excerpt: Y axis represents percentage of binding blocked by the presence of the competing peptide compared with the binding in the absence of the competing peptide. All these peptides are amidated at the C-terminus.
Ends that are not written are not given here.

Some binders with known percentage of binding blocked results, for comparison:
SGGVVKNNFVATNVGSKAF-NH2 (the entry already carries P29A) [human α-CGRP P29A (19-37)] :: 100%
SGGVVKNNFVPTNVGSAAF-NH2 (also: N-terminal biotin when on the chip, the entry already carries K35A) [human α-CGRP K35A (19-37)] :: 100%
SGGVVKNNFVPTNVGSEAF-NH2 (also: N-terminal biotin when on the chip, the entry already carries K35E) [human α-CGRP K35E (19-37)] :: 100%

Enquiry: Endpoint output: percentage of binding blocked of ACDTATCVTHRLAGLLSRSGGVVKNNFVPTNVGSKA-OH (ends and bridges not checked, also called 1-36 (not amidated at the C-terminus)) [human α-CGRP 1-36-COOH] . Value?
Return: ~40%

Enquiry: Name the reported percentage of binding blocked value associated with the binder SGGVVKNNFVPTNVGSMAF-NH2 (also: N-terminal biotin when on the chip, the entry already carries K35M) [human α-CGRP K35M (19-37)]
Return: 100%

Enquiry: Could you share which percentage of binding blocked value was measured for SCNTATCVTHRLAGLLSRSGGVVKDNFVPTNVGSEAF-NH2 (ends and bridges not checked; also: N-terminal biotin when captured on the SA chip, also called rat α (1-37); α-rat) [rat α-CGRP (1-37)] ?
Return: 100%
